Source listed as paper PMC8364686.

assay: Plasma pharmacokinetics of BI 187004 after single oral doses (LC–MS/MS); details: male, human, plasma, po, 10 mg, Plasma concentration Median, 10 mg single oral; 5 h
attribute-measured: concentration at 5 h (nM)
Numbers only, in nM.

## Task What value of measured concentration at 5 h is listed for N#Cc1ccc2c(c1)[C@H]1CCCN(C(=O)c3ccc4[nH]cnc4c3)[C@H]1C2 [BI 187004] ?
## Result 272

###

test: Plasma pharmacokinetics of BI 187004 after single oral doses (LC–MS/MS); conditions: male, human, plasma, po, 360 mg
attribute-measured: half-life (h)
Answers are plain numbers, in h.

## Task What value of measured half-life is listed for `N#Cc1ccc2c(c1)[C@H]1CCCN(C(=O)c3ccc4[nH]cnc4c3)[C@H]1C2` ?
## Result 13.9
